Where these numbers come from: the supplement of paper PMC10126150

switch fluorescence ratio values, listed per item
test system: ATP; experiment: switch fluorescence ratio, 500 uM ATP over buffer (Cy3 cluster intensity, sum of 5 cycles each) (fold (ratio)); higher = stronger signal-on switching upon ATP binding; sequences stand for … in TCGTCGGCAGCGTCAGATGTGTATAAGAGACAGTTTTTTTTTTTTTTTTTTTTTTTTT…TC; conditions: aptamer strand: ATP DNA aptamer (quencher-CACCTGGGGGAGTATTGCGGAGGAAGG + anchor), 100 nM annealed; ATP concentration: 500 uM;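 also: ATP exposure 15 min at 22 °C before imaging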

TGTTGTAATG: 0.997
TAAAGTCCGA: 1.01
GTTTATTGTT: 1
GATATGCCTG: 1.01
CCAAGGTGGG: 1.1

// query For the sequence GTAGTAGGTG , what switch fluorescence ratio is on record?
// result 1

// query For the sequence ATTTGTTTTG , what switch fluorescence ratio is on record?
// result 0.997

###

test system: ATP; experiment: switch fluorescence ratio, 500 uM ATP over buffer (Cy3 cluster intensity, sum of 5 cycles each) (fold (ratio)); higher = stronger signal-on switching upon ATP binding; sequences stand for … in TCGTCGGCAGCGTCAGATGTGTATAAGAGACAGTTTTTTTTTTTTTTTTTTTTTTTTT…TC; conditions: aptamer strand: ATP DNA aptamer (quencher-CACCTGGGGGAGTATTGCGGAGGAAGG + anchor), 100 nM annealed; ATP concentration: 500 uM;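 also: ATP exposure 15 min at 22 °C before imaging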
switch fluorescence ratio values, listed per item
Answer using only a numeral; do not append any unit.

Some sequences with known switch fluorescence ratio results, for comparison:
GGGGTTTCGT: 1.01
GATTTAGAGC: 0.973
AGTAAGGTGT: 1.13
ACACCCCCGT: 1.67
TTTTTGCTGA: 1.01

// query For the sequence TGGGAACGAG , what switch fluorescence ratio is on record?
// result 1.01

// query For the sequence TGGAATTGCC , what switch fluorescence ratio is on record?
// result 1.02

// query For the sequence GTTTGGTTGG , what switch fluorescence ratio is on record?
// result 1

// query For the sequence GGGGTTGTCG , what switch fluorescence ratio is on record?
// result 0.989

// query For the sequence CGTTTTCCGA , what switch fluorescence ratio is on record?
// result 1.01

###

system: ATP; assay: switch fluorescence ratio, 500 uM ATP over buffer (Cy3 cluster intensity, sum of 5 cycles each) (fold (ratio)); higher = stronger signal-on switching upon ATP binding; sequences stand for … in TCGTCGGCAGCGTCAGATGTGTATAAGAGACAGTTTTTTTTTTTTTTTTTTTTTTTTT…TC; conditions: aptamer strand: ATP DNA aptamer (quencher-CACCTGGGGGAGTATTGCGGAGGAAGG + anchor), 100 nM annealed; ATP concentration: 500 uM;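 also: ATP exposure 15 min at 22 °C before imaging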
Endpoint Label: switch fluorescence ratio
Answer using only a numeral; do not append any unit.

Some sequences with known switch fluorescence ratio results, for comparison:
TGTGGGCTGG: 1.02
TTACAGGGAG: 1.02
TTCGTGGGCT: 1.02
TGCTCGTATA: 0.985
TGTTTTAATG: 0.988
ATTAGCAATG: 1.35

// query What is its switch fluorescence ratio for ATP? Entry: GTGAACATAT
// result 1.04

// query What is its switch fluorescence ratio for ATP? Entry: AGGTCTATTG
// result 1.06

// query What is its switch fluorescence ratio for ATP? Entry: AAGAAGGAGG
// result 1.01

// query What is its switch fluorescence ratio for ATP? Entry: GATGTAGGGC
// result 1

// query What is its switch fluorescence ratio for ATP? Entry: ATGCGATGGC
// result 1.02

// query What is its switch fluorescence ratio for ATP? Entry: TTTTACTATT
// result 0.996

// query What is its switch fluorescence ratio for ATP? Entry: TCCGCGGAG
// result 1.15

// query What is its switch fluorescence ratio for ATP? Entry: CGGTGGTGGG
// result 1.03

// query What is its switch fluorescence ratio for ATP? Entry: GAGGGTTTTA
// result 1

// query What is its switch fluorescence ratio for ATP? Entry: GGTTGAATGA
// result 0.992

// query What is its switch fluorescence ratio for ATP? Entry: ATAAGTATGA
// result 1.01

// query What is its switch fluorescence ratio for ATP? Entry: GATCTGTCAG
// result 1.01

###

tested on: ATP; test: switch fluorescence ratio, 500 uM ATP over buffer (Cy3 cluster intensity, sum of 5 cycles each) (fold (ratio)); higher = stronger signal-on switching upon ATP binding; sequences stand for … in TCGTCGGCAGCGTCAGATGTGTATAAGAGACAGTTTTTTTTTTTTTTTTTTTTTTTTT…TC; details: aptamer strand: ATP DNA aptamer (quencher-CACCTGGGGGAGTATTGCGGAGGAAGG + anchor), 100 nM annealed; ATP concentration: 500 uM;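 also: ATP exposure 15 min at 22 °C before imaging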
switch fluorescence ratio values, listed per item
Answer using only a numeral; do not append any unit.

Some sequences with known switch fluorescence ratio results, for comparison:
TCCCGTTATT: 1.01
CCCGTGCCAG: 1.02
TGGTTGGCGG: 1.03
TCGTGAGGTT: 1.01
GGGGAGGGTA: 1.03
GGTTATATTT: 1.03
TGATTGTGCG: 0.957
TGAGATGCGG: 1.03
GGATTCAGGC: 0.981
GGGAAAGCGT: 1.03

// query For the sequence TTTGTTTTGC , what switch fluorescence ratio is on record?
// result 0.971

// query For the sequence AAGGGCCGCG , what switch fluorescence ratio is on record?
// result 1

// query For the sequence TAGGATACGG , what switch fluorescence ratio is on record?
// result 0.995

// query For the sequence TAAGGAGTGG , what switch fluorescence ratio is on record?
// result 1.03

// query For the sequence GGTTCTGGGC , what switch fluorescence ratio is on record?
// result 0.96

// query For the sequence AATTTGGTGC , what switch fluorescence ratio is on record?
// result 1.01

// query For the sequence GACTAAGACT , what switch fluorescence ratio is on record?
// result 1.01

###

switch fluorescence ratio values, listed per item
test system: ATP; assay: switch fluorescence ratio, 500 uM ATP over buffer (Cy3 cluster intensity, sum of 5 cycles each) (fold (ratio)); higher = stronger signal-on switching upon ATP binding; sequences stand for … in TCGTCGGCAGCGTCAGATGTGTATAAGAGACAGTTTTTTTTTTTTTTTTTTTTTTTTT…TC; conditions: aptamer strand: ATP DNA aptamer (quencher-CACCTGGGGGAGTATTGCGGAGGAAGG + anchor), 100 nM annealed; ATP concentration: 500 uM;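 also: ATP exposure 15 min at 22 °C before imaging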
Answer using only a numeral; do not append any unit.

TGCAACGGGT: 1.02

Moving on to the next sequence.
// query What is its switch fluorescence ratio for ATP? Entry: GGTTAACTGT
// result 1.01

###

test system: ATP; assay: switch fluorescence ratio, 500 uM ATP over buffer (Cy3 cluster intensity, sum of 5 cycles each) (fold (ratio)); higher = stronger signal-on switching upon ATP binding; sequences stand for … in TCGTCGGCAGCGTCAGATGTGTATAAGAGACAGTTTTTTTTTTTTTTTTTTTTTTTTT…TC; details: aptamer strand: ATP DNA aptamer (quencher-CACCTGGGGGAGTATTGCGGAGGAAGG + anchor), 100 nM annealed; ATP concentration: 500 uM;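 also: ATP exposure 15 min at 22 °C before imaging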
Endpoint Label: switch fluorescence ratio
Answer using only a numeral; do not append any unit.

Some sequences with known switch fluorescence ratio results, for comparison:
AAGTTTGGGC: 0.98
GAGCGTAGGG: 0.954
AATACAGGCT: 0.999
AGGACCAGTT: 1.03
CGAAGCGCCC: 4.36

// query For the sequence TTTTTTTGAT , what switch fluorescence ratio is on record?
// result 1.16

// query For the sequence AAGGGACAGT , what switch fluorescence ratio is on record?
// result 1.03

// query For the sequence TTTTCAAATT , what switch fluorescence ratio is on record?
// result 1.01

// query For the sequence TGGGGATAGG , what switch fluorescence ratio is on record?
// result 1.01

// query For the sequence TGCTAGGGTA , what switch fluorescence ratio is on record?
// result 0.985

// query For the sequence AGCATGGCTG , what switch fluorescence ratio is on record?
// result 1.01

###

test system: ATP; assay: switch fluorescence ratio, 500 uM ATP over buffer (Cy3 cluster intensity, sum of 5 cycles each) (fold (ratio)); higher = stronger signal-on switching upon ATP binding; sequences stand for … in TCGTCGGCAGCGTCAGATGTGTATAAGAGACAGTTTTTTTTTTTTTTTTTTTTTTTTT…TC; details: aptamer strand: ATP DNA aptamer (quencher-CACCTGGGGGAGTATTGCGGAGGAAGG + anchor), 100 nM annealed; ATP concentration: 500 uM;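 also: ATP exposure 15 min at 22 °C before imaging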
Endpoint Label: switch fluorescence ratio
Answer using only a numeral; do not append any unit.

GATATTTTTT: 0.989
GAAGGGGAAG: 0.998
TTGGGACGAC: 1.02

// query For the sequence TATTTGGTCG , what switch fluorescence ratio is on record?
// result 1.02

// query For the sequence GGGATGGGGT , what switch fluorescence ratio is on record?
// result 0.988

// query For the sequence CAATGGCTTT , what switch fluorescence ratio is on record?
// result 0.998

// query For the sequence TTTGAGGTCC , what switch fluorescence ratio is on record?
// result 1

// query For the sequence GGTTAAGAAA , what switch fluorescence ratio is on record?
// result 1.02

// query For the sequence ATCATTAATG , what switch fluorescence ratio is on record?
// result 1.01

// query For the sequence GTTTGCTTAG , what switch fluorescence ratio is on record?
// result 0.986

// query For the sequence TTAAACAAGG , what switch fluorescence ratio is on record?
// result 1.01

// query For the sequence ATGAGTTGGT , what switch fluorescence ratio is on record?
// result 0.982

// query For the sequence GATTTAGGGA , what switch fluorescence ratio is on record?
// result 0.995

// query For the sequence GGGTTAAGAT , what switch fluorescence ratio is on record?
// result 0.997

// query For the sequence GGGTGGGCTC , what switch fluorescence ratio is on record?
// result 0.971

// query For the sequence ATTTTTAGTG , what switch fluorescence ratio is on record?
// result 1.01

// query For the sequence TTTAGATTGA , what switch fluorescence ratio is on record?
// result 0.996

// query For the sequence TTTAGGTACT , what switch fluorescence ratio is on record?
// result 1.25

// query For the sequence ATTAGGGTTC , what switch fluorescence ratio is on record?
// result 1.44
